- TGT: HLA-B*15:01
- PROTOCOL TEXT: IEDB peptide-MHC binding, purified MHC/competitive/fluorescence; filed as Kd, often an IC50 or EC50 that approximates it; bounds were set here for any values at or beyond the usual limits of such assays
- CONDITION NOTES: source organism: Candida albicans SC5314
PROPERTY NAME: pKd
Give bare numbers, as −log10 of the molar value.

GET /values?readout=pKd&item= RVYNNTARY
6.73

---

- TGT: HLA-B*40:01
- PROTOCOL TEXT: IEDB peptide-MHC binding, purified MHC/competitive/radioactivity; filed as Kd, often an IC50 or EC50 that approximates it; bounds were set here for any values at or beyond the usual limits of such assays
- CONDITION NOTES: source organism: Dengue virus 1 Brazil/97-11/1997
PROPERTY NAME: pKd
One number for each entry, as −log10 of the molar value.

Please look at the items below and tell me pKd for each one, in order.
1. KEISSMLNI
2. VEDERFWDL

[6.58, 6.81]

Please look at the items below and tell me pKd for each one, in order.
1. AETQHGTVL
2. KEGDQYVYM

[9.49, 6.40]
